// data source = patent US20250163127A1

Please go through the items and note down their log10 Fold change to WT CD80.
# test-system: CTLA-4 (human)
# Sequence (chain, as listed by the source): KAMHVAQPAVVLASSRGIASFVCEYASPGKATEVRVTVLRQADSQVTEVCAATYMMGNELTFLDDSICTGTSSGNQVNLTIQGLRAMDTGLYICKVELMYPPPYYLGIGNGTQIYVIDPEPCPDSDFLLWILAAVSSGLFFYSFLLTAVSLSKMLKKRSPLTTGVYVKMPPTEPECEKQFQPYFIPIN
# procedure-text: flow cytometry, CHO cells expressing CTLA4
All values: base-10 log of Fold change to WT CD80 in fold.

Please review the following examples before continuing.
variant CD80 E35D/T41S/M43V/M47I/L70M/A71G (Fc fusion) VIHVTKEVKEVATLSCGHNVSVEELAQTRIYWQKDKKMVLSMVSGDINIWPEYKNRTIFDITNNLSIVIMGLRPSDEGTYECVVLKYEKDAFKREHLAEVT | 0.20
variant CD80 Q33L/E35D/M47I/N48D/A71G (Fc fusion) VIHVTKEVKEVATLSCGHNVSVEELAQTRIYWLKDKKMVLTMMSGDIDIWPEYKNRTIFDITNNLSIVILGLRPSDEGTYECVVLKYEKDAFKREHLAEVT | -0.13
variant CD80 E35D/D46E/M47V/V68M/D90G/K93E (Fc fusion) VIHVTKEVKEVATLSCGHNVSVEELAQTRIYWQKDKKMVLTMMSGEVNIWPEYKNRTIFDITNNLSIMILALRPSDEGTYECVVLKYEKGAFEREHLAEVT | 0.24
variant CD80 E35D/D46E/M47V/N63D/L85Q (Fc fusion) VIHVTKEVKEVATLSCGHNVSVEELAQTRIYWQKDKKMVLTMMSGEVNIWPEYKNRTIFDITDNLSIVILALRPSDEGTYECVVQKYEKDAFKREHLAEVT | 0.24
variant CD80 Q27H/E35D/M47I/L85Q/D90G (Fc fusion) VIHVTKEVKEVATLSCGHNVSVEELAHTRIYWQKDKKMVLTMMSGDINIWPEYKNRTIFDITNNLSIVILALRPSDEGTYECVVQKYEKGAFKREHLAEVT | 0.21
variant CD80 E35D/M47I/T62S/L85Q (Fc fusion) VIHVTKEVKEVATLSCGHNVSVEELAQTRIYWQKDKKMVLTMMSGDINIWPEYKNRTIFDISNNLSIVILALRPSDEGTYECVVQKYEKDAFKREHLAEVT | 0.28
variant CD80 R29H/E35D/M43V/M47I/I49V (Fc fusion) VIHVTKEVKEVATLSCGHNVSVEELAQTHIYWQKDKKMVLTMVSGDINVWPEYKNRTIFDITNNLSIVILALRPSDEGTYECVVLKYEKDAFKREHLAEVT | -1.52
variant CD80 E35D/L85Q/K93T/E95V/L97Q (Fc fusion) VIHVTKEVKEVATLSCGHNVSVEELAQTRIYWQKDKKMVLTMMSGDMNIWPEYKNRTIFDITNNLSIVILALRPSDEGTYECVVQKYEKDAFTRVHQAEVT | 0.20
variant CD80 E35D/M47L/A71G/L85M/F92Y (Fc fusion) VIHVTKEVKEVATLSCGHNVSVEELAQTRIYWQKDKKMVLTMMSGDLNIWPEYKNRTIFDITNNLSIVILGLRPSDEGTYECVVMKYEKDAYKREHLAEVT | 0.14
variant CD80 E35D/M47V/N48K/V68M/K89N (Fc fusion) VIHVTKEVKEVATLSCGHNVSVEELAQTRIYWQKDKKMVLTMMSGDVKIWPEYKNRTIFDITNNLSIMILALRPSDEGTYECVVLKYENDAFKREHLAEVT | -2.00

Lab note: next binder to report on.
Prompt: Annotate the binder variant CD80 E35D/M47I/L85Q/D90G (Fc fusion) VIHVTKEVKEVATLSCGHNVSVEELAQTRIYWQKDKKMVLTMMSGDINIWPEYKNRTIFDITNNLSIVILALRPSDEGTYECVVQKYEKGAFKREHLAEVT with its measured log10 Fold change to WT CD80.
Completion: 0.20
